assay: NCI Yeast Anticancer Drug Screen. Data for the sgs1 mgt1 strain (AID 161);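 further: 0% = growth of cultures given vehicle only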; conditions: S. cerevisiae sgs1 mgt1 strain, at 50.0 µM, hits give high values
This is part of a sample that, as a whole, favours compounds with a hit. Of some 79,000 tested, about 15% had one in any assay. The source made the active and inactive calls. No stated cut-off is given here; in the data, active means growth inhibition above about 70%; inactive means the rest.
Result type: growth inhibition

> print(dat)
                                   compound  reported.value
1  COc1ccc(C2C3CCCC(C(c4ccc(OC)cc4)N2C)C32NC(=O)NC2=O)cc1 (stereo unspecified)  97.8% (active)

query: Reported growth inhibition for O=C1c2ccccc2C(=O)c2sc(Nc3ccccc3C(F)(F)F)nc21 : what is it?
result: 92.7% (active)

query: Reported growth inhibition for COc1c(Br)c(=O)n(C)c(=O)n1C : what is it?
result: 91.2% (active)

query: Reported growth inhibition for CC(=O)NNc1ccc(Cl)cc1[N+](=O)[O-] : what is it?
result: 12.1% (inactive)

query: Reported growth inhibition for CCCC12C=C(OC)C(=O)C=C1OC(c1ccc3c(c1)OCO3)C2C (stereo unspecified) : what is it?
result: 80.8% (active)

query: Reported growth inhibition for NNC(=O)c1ccccc1SSc1ccccc1C(=O)NN : what is it?
result: 99.7% (active)
